Tested on: RNAi-treated eri-1 (mg366) nematodes
assaySummary: RNAi screening of olfactory receptor genes: chemotaxis assay of RNAi-treated nematodes to odorants
Type: in vivo, Caenorhabditis elegans
conditionNotes: srh-241 RNAi-treated nematodes; low concentration of attractant
attributeMeasured: chemotaxis index
One number for each entry.

>>> observed("Cc1nc(C)c(C)s1 [trimethylthiazole]")
0.85
>>> observed("CCC(=O)C(C)=O [pentanedione]")
0.63
>>> observed("CCC(C)=O [butanone]")
0.63
>>> observed("CC(C)CCO [isoamyl alcohol]")
0.63

Count: 2. Required value per item: chemotaxis index.
1. O=Cc1ccccc1 [benzaldehyde]
2. c1cnccn1 [pyrazine]

1: 0.66; 2: 0.78

* * *

What chemotaxis index was measured for each of the following?
System: RNAi-treated eri-1 (mg366) nematodes
assaySummary: RNAi screening of olfactory receptor genes: chemotaxis assay of RNAi-treated nematodes to odorants
Format: in vivo, Caenorhabditis elegans
conditionNotes: srh-275 RNAi-treated nematodes; low concentration of attractant
One number for each entry.

Example entries begin here.
>>> observed("O=Cc1ccccc1")
0.16
>>> observed("CCC(=O)C(C)=O")
0.57
>>> observed("Cc1nc(C)c(C)s1")
0.53

Count: 3. Required value per item: chemotaxis index.
1. CCC(C)=O
2. c1cnccn1
3. CC(C)CCO

1. −0.29
2. 0.42
3. 0.39

* * *

Tested on: RNAi-treated eri-1 (mg366) nematodes
assaySummary: RNAi screening of olfactory receptor genes: chemotaxis assay of RNAi-treated nematodes to odorants
Format: in vivo, Caenorhabditis elegans
conditionNotes: srh-111 RNAi-treated nematodes; repellent or high concentration of attractant
Think of -0.7 as a floor: if chemotaxis index stands on it or above, it is yes (1); beneath it, no (0).

>>> classassignment("CC(C)CCO")
"yes (1)"
>>> classassignment("O=Cc1ccccc1")
"no (0)"
>>> classassignment("CCCCCCCCO")
"yes (1)"

Continue with the molecule presented below.
Determine whether measured chemotaxis index meets or exceeds -0.7 for CC(=O)C(C)=O
yes (1)

* * *

System: RNAi-treated eri-1 (mg366) nematodes
assaySummary: RNAi screening of olfactory receptor genes: chemotaxis assay of RNAi-treated nematodes to odorants
Assay type: in vivo, Caenorhabditis elegans
conditionNotes: srh-298 RNAi-treated nematodes; low concentration of attractant
What chemotaxis index was measured for each of the following?

>>> observed("O=Cc1ccccc1")
0.66
>>> observed("CC(C)CCO")
0.68
>>> observed("c1cnccn1")
0.33
>>> observed("CCC(=O)C(C)=O")
0.68

Count: 2. Required value per item: chemotaxis index.
1. CCC(C)=O
2. Cc1nc(C)c(C)s1

[0.65, 0.82]

* * *

Tested on: RNAi-treated eri-1 (mg366) nematodes
assaySummary: RNAi screening of olfactory receptor genes: chemotaxis assay of RNAi-treated nematodes to odorants
Type: in vivo, Caenorhabditis elegans
conditionNotes: srh-51 RNAi-treated nematodes; repellent or high concentration of attractant
Think of -0.9 as a floor: if chemotaxis index stands on it or above, it is 1 (yes); beneath it, 0 (no).

// below: answered molecules
>>> classassignment("O=Cc1ccccc1")
"0 (no)"
>>> classassignment("CC(C)CCO")
"1 (yes)"

Continue with the molecule presented below.
Determine whether measured chemotaxis index meets or exceeds -0.9 for CC(=O)C(C)=O
1 (yes)

* * *

Tested on: RNAi-treated eri-1 (mg366) nematodes
assaySummary: RNAi screening of olfactory receptor genes: chemotaxis assay of RNAi-treated nematodes to odorants
Assay type: in vivo, Caenorhabditis elegans
conditionNotes: srh-52 RNAi-treated nematodes; low concentration of attractant
What chemotaxis index was measured for each of the following?
One number for each entry.

Example entries begin here.
>>> observed("Cc1nc(C)c(C)s1 [trimethylthiazole]")
0.55
>>> observed("c1cnccn1 [pyrazine]")
0.55

Count: 2. Required value per item: chemotaxis index.
1. CCC(C)=O [butanone]
2. CCC(=O)C(C)=O [pentanedione]

1: 0.69; 2: 0.51

* * *

Tested on: RNAi-treated eri-1 (mg366) nematodes
assaySummary: RNAi screening of olfactory receptor genes: chemotaxis assay of RNAi-treated nematodes to odorants
Type: in vivo, Caenorhabditis elegans
conditionNotes: srh-45 RNAi-treated nematodes; repellent or high concentration of attractant
What chemotaxis index was measured for each of the following?
One number for each entry.

>>> observed("CCCCCCCC(C)=O")
"−0.91"
>>> observed("CC(C)CCO")
"−0.97"
>>> observed("CC(=O)C(C)=O")
"−0.47"
>>> observed("CCCCCCCCO")
"−0.87"

Name the recorded chemotaxis index for O=Cc1ccccc1 .
−0.96

* * *

System: RNAi-treated eri-1 (mg366) nematodes
assaySummary: RNAi screening of olfactory receptor genes: chemotaxis assay of RNAi-treated nematodes to odorants
Type: in vivo, Caenorhabditis elegans
conditionNotes: srh-55 RNAi-treated nematodes; repellent or high concentration of attractant
What chemotaxis index was measured for each of the following?

>>> observed("CC(C)CCO")
"−0.95"
>>> observed("O=Cc1ccccc1")
"−0.98"

Count: 3. Required value per item: chemotaxis index.
1. CC(=O)C(C)=O
2. CCCCCCCCO
3. CCCCCCCC(C)=O

["−0.78", "−0.95", "−0.96"]

* * *

Tested on: RNAi-treated eri-1 (mg366) nematodes
assaySummary: RNAi screening of olfactory receptor genes: chemotaxis assay of RNAi-treated nematodes to odorants
Assay type: in vivo, Caenorhabditis elegans
conditionNotes: srh-22 RNAi-treated nematodes; repellent or high concentration of attractant
attributeMeasured: chemotaxis index
Give bare numbers.

Count: 5. Required value per item: chemotaxis index.
1. CC(=O)C(C)=O
2. CCCCCCCCO
3. CCCCCCCC(C)=O
4. O=Cc1ccccc1
5. CC(C)CCO

["−0.74", "−0.48", "−0.89", "−0.80", "−0.81"]

* * *

Tested on: RNAi-treated eri-1 (mg366) nematodes
assaySummary: RNAi screening of olfactory receptor genes: chemotaxis assay of RNAi-treated nematodes to odorants
Type: in vivo, Caenorhabditis elegans
conditionNotes: srh-24 RNAi-treated nematodes; repellent or high concentration of attractant
attributeMeasured: chemotaxis index

Example entries begin here.
>>> observed("CC(C)CCO [High Iaa]")
"−1.00"
>>> observed("CCCCCCCCO [octanol]")
"−0.56"
>>> observed("O=Cc1ccccc1 [High Bz]")
"−1.00"
>>> observed("CC(=O)C(C)=O [High Da]")
"−0.67"

Below: the item to evaluate.
Name the recorded chemotaxis index for CCCCCCCC(C)=O [nonanone] .
−0.79

* * *

Tested on: RNAi-treated eri-1 (mg366) nematodes
assaySummary: RNAi screening of olfactory receptor genes: chemotaxis assay of RNAi-treated nematodes to odorants
Assay type: in vivo, Caenorhabditis elegans
conditionNotes: srh-4 RNAi-treated nematodes; repellent or high concentration of attractant
Think of -0.8 as a floor: if chemotaxis index stands on it or above, it is true (1); beneath it, false (0).

>>> classassignment("CCCCCCCCO")
"true (1)"

Determine whether measured chemotaxis index meets or exceeds -0.8 for CC(C)CCO
true (1)

Determine whether measured chemotaxis index meets or exceeds -0.8 for CCCCCCCC(C)=O
false (0)

Determine whether measured chemotaxis index meets or exceeds -0.8 for O=Cc1ccccc1
true (1)

* * *

What chemotaxis index was measured for each of the following?
System: RNAi-treated eri-1 (mg366) nematodes
assaySummary: RNAi screening of olfactory receptor genes: chemotaxis assay of RNAi-treated nematodes to odorants
Format: in vivo, Caenorhabditis elegans
conditionNotes: srh-229 RNAi-treated nematodes; low concentration of attractant

Count: 5. Required value per item: chemotaxis index.
1. CCC(=O)C(C)=O
2. CCC(C)=O
3. Cc1nc(C)c(C)s1
4. CC(C)CCO
5. c1cnccn1

1: 0.12; 2: 0.60; 3: 0.69; 4: −0.20; 5: 0.09

Name the recorded chemotaxis index for O=Cc1ccccc1 .
−0.21

* * *

Test system: RNAi-treated eri-1 (mg366) nematodes
assaySummary: RNAi screening of olfactory receptor genes: chemotaxis assay of RNAi-treated nematodes to odorants
Type: in vivo, Caenorhabditis elegans
conditionNotes: srh-77 RNAi-treated nematodes; repellent or high concentration of attractant
attributeMeasured: chemotaxis index
Answers are plain numbers.

>>> observed("CC(=O)C(C)=O")
"−0.34"

Count: 3. Required value per item: chemotaxis index.
1. CCCCCCCC(C)=O
2. O=Cc1ccccc1
3. CC(C)CCO

["−0.74", "−0.89", "−0.68"]

Name the recorded chemotaxis index for CCCCCCCCO .
−0.31

* * *

System: RNAi-treated eri-1 (mg366) nematodes
assaySummary: RNAi screening of olfactory receptor genes: chemotaxis assay of RNAi-treated nematodes to odorants
Type: in vivo, Caenorhabditis elegans
conditionNotes: srh-251 RNAi-treated nematodes; low concentration of attractant
What chemotaxis index was measured for each of the following?
Numbers only.

>>> observed("CC(C)CCO")
0.75
>>> observed("CCC(C)=O")
0.92
>>> observed("Cc1nc(C)c(C)s1")
0.64
>>> observed("CCC(=O)C(C)=O")
0.32
>>> observed("c1cnccn1")
0.32

# query: chemotaxis index | item O=Cc1ccccc1 | system: RNAi-treated eri-1 (mg366) nematodes
0.70
